Assay Summary: Confirmatory qHTS for Identification of Small Molecule Activators of Huntingtin-Antisense Promoter Activity
Condition Set: HEK293 HTT-AS promoter firefly luciferase reporter, 24 h; series mostly up to 57.5 µM
Activity calls are given as the source filed them. Calls follow the shape of the dose curve; as a rule, active = well fitted activation curve with a large enough effect; inconclusive = small, poorly fitted or top-dose-only effect; inactive = no such curve, though single readings can be large or run the other way.
Labels: true = active, false = inactive

Compound	Class
CCN1C(=O)c2ccccc2Sc2ccc(NC(=O)Nc3ccccc3OC)cc21	false
Cc1ccc(NC(=O)C2CCCN2S(=O)(=O)c2cccc3nsnc23)cc1Cl (stereo unspecified)	false
CC(CNC(=O)c1ccc(CSc2nc3ccncc3n2Cc2ccc(F)cc2)cc1)c1ccccc1 (stereo unspecified)	false
CCOc1ccc(NC(=O)CN(c2ccc(Cl)cc2C)S(=O)(=O)c2ccccc2)cc1	false
Cc1ccc(C)c(OCCCC(C)(C)C(=O)O)c1	false
COc1ccc(-c2noc(CSc3nc4ccccc4[nH]3)n2)cc1OC	false
CN(C)Cc1ccc(-c2nc3cccc4c3n2CCNC4=O)cc1	true
Cc1cccc(C2C=C(c3ccc(F)cc3)Nc3nc4ccccc4n32)c1 (stereo unspecified)	true
COc1ccc(Cl)cc1NC(=O)CSc1nccn1-c1ccc(Cl)cc1	false
CCOC(=O)C1CCCN(C(=O)Cn2c(=O)cc(C)c3c(C)nn(C)c32)C1 (stereo unspecified)	false
COc1ccc(-c2cccc(NS(=O)(=O)c3cc(C)c(OC)c(C)c3C)c2)nn1	false
COc1ccc(C(=O)Oc2c(Sc3ccccc3)c(C)nn2-c2ccccc2)c(OC)c1	false
Cc1ccc2nc(SCc3nc(-c4ccccc4C)no3)[nH]c2c1	false
CCOc1ccc(S(=O)(=O)NCCc2sc3nc(-c4ccc(F)cc4)nn3c2C)cc1	false
CCCCOc1cccc(C(=O)N(Cc2ccc(C)o2)c2ccccn2)c1	false
Cc1ccccc1Cc1c(C)nc2c(-c3ccccc3)c(C)[nH]n2c1=O	false
CCOC(=O)c1cnc2ccc(OCC)cc2c1Nc1ccc(OCc2ccccc2Cl)cc1	false
Cc1cc(C)c(Cn2c3ccccc3c3cnn(CC(=O)N4CCCCC4)c(=O)c32)c(C)c1	false
Cc1ccc(C)c(-n2nnc(C(=O)Nc3ccc(Br)cc3)c2C)c1	false
COc1ccc(C)cc1NC(=O)CN1CCCN(S(=O)(=O)c2ccc(Br)cc2)CC1	false
Cc1ccc(CCNC(=O)C2CCN(c3nnc(-n4cccc4CNc4ccc(C)cc4)s3)CC2)cc1	false
Cc1ccc(S(=O)(=O)NCCc2csc(-c3cccc(F)c3)n2)cc1	false
COc1ccc(-c2noc(CSc3nnc(-c4ccccc4)n3-c3ccc(F)cc3)n2)c(OC)c1	false
O=C(Nc1cc(Cl)cc(Cl)c1)c1ccc(F)c(S(=O)(=O)N2CCc3ccccc32)c1	false
COc1ccc(CNC(=O)c2ccc3c(c2)CCN3S(=O)(=O)c2ccc(Cl)cc2)cc1	false
O=C(Nc1ccc(S(=O)(=O)N(Cc2ccccc2)c2ccccc2)cc1)c1ccc(F)cc1	false
COc1cccc(CNC(=O)c2cc3c(-c4ccccc4F)nn(C)c3s2)c1	false
CC1=C(C(=O)Nc2ccc(Cl)cc2)C(c2ccccc2C)n2ncc(C(=O)Nc3ccc(C)cc3)c2N1 (stereo unspecified)	false
COc1ccc(NC(=O)CSc2oc(-c3cccs3)nc2S(=O)(=O)c2ccccc2)c(OC)c1	false
COc1ccccc1N1CCN(C(=O)C2CCCN(S(=O)(=O)c3ccc4c(c3)oc(=O)n4C)C2)CC1 (stereo unspecified)	false
Cc1ccc(C)c(NC(=O)C(=O)NCC(c2cccnc2)N2CCN(c3ccc(F)cc3)CC2)c1 (stereo unspecified)	false
Cc1cc(NC(=O)c2cc(-c3ccc(F)cc3)on2)nn1Cc1ccc(Cl)cc1	false
Cn1c(=O)n(C)c2cc(NS(=O)(=O)c3ccc(C(C)(C)C)cc3)c(NCc3ccccc3)cc21	false
CCOc1ccccc1NS(=O)(=O)c1ccc2c(c1)CC(C)N2C(=O)C1CC1 (stereo unspecified)	false
O=C(Nc1ccc(F)cc1F)c1ccc2c(c1)CCN2S(=O)(=O)c1ccc(Cl)cc1	false
Cc1cccc2sc(N3CCN(C(=O)CS(=O)(=O)c4ccc(F)cc4)CC3)nc12	false
O=C(O)c1cc(-n2c(/C=C\c3ccc(F)cc3)nc3ccccc3c2=O)ccc1Cl	false
O=C(CSc1ccc(-c2ccccn2)nn1)Nc1ccc(F)c(F)c1	false
CC(C)Cc1ccc(S(=O)(=O)Nc2ccc3[nH]c(=O)[nH]c3c2)cc1	false
CCOc1ccc(NS(=O)(=O)c2ccc(-c3cc(C)no3)s2)cc1	false
O=C(Cc1ccccc1)Nc1cccc(-c2cn3cccnc3n2)c1	true
